meta.source: the supplement of paper PMC10567573

B1: TFE3 (parent)
chain: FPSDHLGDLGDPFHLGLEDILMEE

Variants of: B1
assay_comment: protein stability index of a GFP-peptide fusion (GPS, HEK-293T) (PSI 1-6); higher = more stable;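 note: lentivirally expressed fusions sorted by FACS into six bins by GFP to DsRed ratio, PSI derived from sequencing read proportions per bin multiplied by bin number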
test_context: c terminus: a fixed tail appended
Quick reference: protein stability index of the listed items.
Reply with the value as a number alone.

Past entries and their recorded results:
[[record]]
mutation_notation = "D4M"
reported = 2.77

[[record]]
mutation_notation = "D19H"
reported = 3.29

[[record]]
mutation_notation = "E23R"
reported = 2.95


The recorded protein stability index for entry F1Q equals 4.57

Memo: D8K , reported protein stability index: 2.42

protein stability index measured on D8F = 2.52

For reference, reported protein stability index for P2D stands at 3.95

The variant L9F showed protein stability index equal to 3.45

Per the record, G7S has protein stability index of 3.73
